Values were extracted from PubChem BioAssay AID1851.

# target: Cytochrome P450 2C19 (Homo sapiens) (UniProt P33261)
# Sequence (P33261 whole entry, looked up): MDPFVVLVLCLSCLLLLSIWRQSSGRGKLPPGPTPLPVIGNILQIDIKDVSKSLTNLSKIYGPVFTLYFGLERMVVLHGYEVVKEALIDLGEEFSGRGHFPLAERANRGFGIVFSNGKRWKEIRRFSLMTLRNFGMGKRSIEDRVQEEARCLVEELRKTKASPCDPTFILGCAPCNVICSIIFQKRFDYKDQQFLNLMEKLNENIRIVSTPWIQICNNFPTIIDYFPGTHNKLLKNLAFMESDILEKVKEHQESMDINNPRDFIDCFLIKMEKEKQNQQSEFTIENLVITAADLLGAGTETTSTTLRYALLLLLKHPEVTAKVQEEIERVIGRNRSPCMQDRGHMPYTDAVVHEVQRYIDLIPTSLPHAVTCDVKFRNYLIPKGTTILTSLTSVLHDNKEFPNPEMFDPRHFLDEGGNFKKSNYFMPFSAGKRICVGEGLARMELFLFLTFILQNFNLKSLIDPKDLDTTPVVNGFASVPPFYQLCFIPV
# assayNotes: Cytochrome panel assay with activity outcomes
# experimentalSetup: recombinant CYP, pro-luciferin dealkylation, luminescence, p450-cyp2c19; series mostly up to 57.1 µM
# Procedure: The P450 gene superfamily is involved in the metabolism and clearance of xenobiotics. This assay used various human CYP P450 isozymes to measure the dealkylation of various pro-luciferin substrates to luciferin. The luciferin is then measured by luminescence after the addition of a luciferase detection reagent. […] Inhibitors and some substrates limit the production of luciferin, and decrease measured luminescence. […] 8, Detection, 1 sec, ViewLux luminescent read […]
Among all 16,000 compounds or so, about 5,800 (36%) were called active. Not shown: some 23% with an inconclusive outcome. Calls come from the whole dose curve; as a rule, active = well fitted curve in the direction sought with a large enough effect; inconclusive = small, poorly fitted or top-dose-only effect, or effect the other way; inactive = no such curve, though single readings can be large or run the other way. Some of the results follow.
Answer with one of the outcomes y (active), n (inactive)

Please review the entries below; each comes with its answer.
                                   compound                                    target  qualitativelabel
0         N[C@H](CCC(=O)NCS(=O)(=O)O)C(=O)O  Cytochrome P450 2C19 (Homo sapiens) (UniProt P33261)                 n
1  CC1CCN(CC[C@H]2CCCN2S(=O)(=O)c2cccc(O)c2)CC1  Cytochrome P450 2C19 (Homo sapiens) (UniProt P33261)                 n
2          CCc1ccc(NC(=O)c2cc(C(C)C)on2)cc1  Cytochrome P450 2C19 (Homo sapiens) (UniProt P33261)                 n
3  CC1CC(C)CN(C(=O)CNS(=O)(=O)c2ccc(Br)s2)C1 (stereo unspecified)  Cytochrome P450 2C19 (Homo sapiens) (UniProt P33261)                 y

IN: Hi team, can someone confirm the assay call for Cc1cc(C)n(Cc2ccc(NC(=O)c3ccc(COc4ccccc4Br)cc3)cc2)n1 ?
OUT: y

IN: Tell me the recorded outcome of this test for Cc1nc2ccccn2c1C(=O)CSc1ccccc1Cl .
OUT: y

----------
# target: Cytochrome P450 2C19 (Homo sapiens) (UniProt P33261)
# assayNotes: Cytochrome panel assay with activity outcomes
# experimentalSetup: recombinant CYP, pro-luciferin dealkylation, luminescence, p450-cyp2c19; series mostly up to 57.1 µM
About 5,800 (36%) of roughly 16,000 compounds were called active. Another 23% or so got no clear call; they are omitted. Calls come from the whole dose curve; as a rule, active = well fitted curve in the direction sought with a large enough effect; inconclusive = small, poorly fitted or top-dose-only effect, or effect the other way; inactive = no such curve, though single readings can be large or run the other way. The list shows a part of the results.
Select the matching outcome among Y for active, N for inactive

IN: Status in this test for Nc1ccc(S(=O)(=O)NC(=O)c2ccccc2)cc1 ?
OUT: N

IN: Give the logged outcome of this assay for the following compound: CC(O)(CS(=O)(=O)Cc1ccccc1Cl)C(=O)Nc1cccc(C(F)(F)F)c1 (stereo unspecified)
OUT: Y

IN: What did the test return for COc1ccc(C(=O)N2CCC3(CCCN(Cc4ccccc4OC)C3)CC2)cc1 ?
OUT: N

IN: Could you please tell me the result logged for COc1cccc([C@@H]2Oc3ccc(OC)cc3/C(=N/O[C@@H](C)c3cc(-c4c(C)cc(C)cc4C)no3)[C@@H]2O)c1 in this assay?
OUT: Y

IN: I would be grateful if you could indicate the recorded call for COc1cc2ccc(=O)oc2cc1O .
OUT: N

IN: Status in this test for O=C(NC(=S)Nc1cccc(Cl)c1N1CCCC1)c1ccc(-c2cccc([N+](=O)[O-])c2)o1 ?
OUT: N

IN: // return assay outcome for COc1ccc(-c2coc3cc4oc(=O)cc(C)c4cc23)cc1F
OUT: Y

IN: Please share the test call associated with CC(C)(C)C(=O)N1CCC(O)(CS(=O)(=O)Cc2ccc(Cl)cc2)CC1 .
OUT: N

IN: Lab log entry: O=S(=O)(C=C(c1ccccc1)c1ccccc1)c1ccccc1 — outcome as called in the assay?
OUT: Y

IN: In this assay, the call recorded for CC1CCN(c2ccccc2NC(=S)NC(=O)c2cccs2)CC1 was what?
OUT: Y

IN: Answer briefly: the call reported for Cc1ccccc1-c1nccc(NCc2cccs2)n1 in this assay.
OUT: Y

IN: So what was the verdict on O=C(NC(=S)Nc1cccc(Cl)c1N1CCCCC1)c1ccco1 in this test?
OUT: Y

IN: Hey, what did the test say about CC(C)CC(=O)N1CCC(O)(CS(=O)(=O)Cc2ccc(Cl)cc2)CC1 ?
OUT: N

IN: Dear colleague, could you share the recorded outcome for O=C(NC(=S)Nc1cccc(Cl)c1N1CCCCC1)c1cccs1 when you have a moment?
OUT: Y

IN: For this compound, state the assay outcome: CC(O)(CS(=O)(=O)Cc1ccc(Cl)cc1)C(=O)Nc1cccc(C(F)(F)F)c1 (stereo unspecified)
OUT: Y

IN: What did the test return for O=c1ccn(-c2cccc(C(F)(F)F)c2)nc1-c1ccn(-c2ccccc2F)n1 ?
OUT: Y

IN: Recorded test call requested for O=C(O)CSc1sc(=S)sc1SCC(=O)O
OUT: Y

IN: For S=C1SCN(C2CCCCCCCCCCC2)CN1C1CCCCCCCCCCC1 , which call appears in the assay record?
OUT: Y

IN: Hi, do you know how COC(=O)[C@@]1(Cc2ccc(OC)cc2)[C@H]2c3cc(C(=O)N4CCCC4)n(Cc4cc(F)cc5c4OCOC5)c3C[C@H]2CN1C(=O)c1ccccc1 came out in this test?
OUT: Y

IN: Each compound tested received a call. Report the one for CN(C)Cc1ccccc1-c1nccc(NCc2cccs2)n1 .
OUT: N

IN: Look up the recorded call for COc1cccc([C@@H]2Oc3ccc(OC)cc3/C(=N/OC[C@@H](C)[C@H](OCc3ccccc3)C(C)C)[C@@H]2O)c1 in this test.
OUT: Y

----------
# target: Cytochrome P450 2C19 (Homo sapiens) (UniProt P33261)
# assayNotes: Cytochrome panel assay with activity outcomes
# experimentalSetup: recombinant CYP, pro-luciferin dealkylation, luminescence, p450-cyp2c19; series mostly up to 57.1 µM
# Protocol: The P450 gene superfamily is involved in the metabolism and clearance of xenobiotics. This assay used various human CYP P450 isozymes to measure the dealkylation of various pro-luciferin substrates to luciferin. The luciferin is then measured by luminescence after the addition of a luciferase detection reagent. […] Inhibitors and some substrates limit the production of luciferin, and decrease measured luminescence. […] 8, Detection, 1 sec, ViewLux luminescent read […]
Among all 16,000 compounds or so, about 5,800 (36%) were called active. Roughly 23% stayed inconclusive and do not appear here. Calls come from the whole dose curve; as a rule, active = well fitted curve in the direction sought with a large enough effect; inconclusive = small, poorly fitted or top-dose-only effect, or effect the other way; inactive = no such curve, though single readings can be large or run the other way. The list shows a part of the results.
Log the outcome using a class from True for active, False for inactive

Past entries and their recorded results:
In [3]: df
Out[3]:
                                inputsmiles                                    target  qualitativelabel
0  O=[N+]([O-])/C=C/c1cn(Cc2ccccc2)c2ccccc12  Cytochrome P450 2C19 (Homo sapiens) (UniProt P33261)              True
1           O=c1cnc2cnc(N3CCOCC3)nc2n1C1CC1  Cytochrome P450 2C19 (Homo sapiens) (UniProt P33261)             False
2         COc1ccc2c(=O)cc(-c3ccncc3)oc2c1OC  Cytochrome P450 2C19 (Homo sapiens) (UniProt P33261)              True
3  Cc1ccccc1C(=O)N1CCN(c2ccc([N+](=O)[O-])c(N3CCOCC3)c2)CC1  Cytochrome P450 2C19 (Homo sapiens) (UniProt P33261)              True
4  CCCC(CCC)C(=O)NNc1cc(=O)c2c(=O)n(C)c(=O)n(C)c2[nH]1  Cytochrome P450 2C19 (Homo sapiens) (UniProt P33261)             False

Next up:
IN: Per the records of this test, what outcome belongs to Cc1ccc(OCCCC(=O)N2CCOCC2)cc1 ?
OUT: True

----------
# target: Cytochrome P450 2C19 (Homo sapiens)
# assayNotes: Cytochrome panel assay with activity outcomes
# experimentalSetup: recombinant CYP, pro-luciferin dealkylation, luminescence, p450-cyp2c19; series mostly up to 57.1 µM
In all, about 16,000 compounds went through this assay and about 5,800 (36%) were called active. Roughly 23% stayed inconclusive and do not appear here. Calls come from the whole dose curve; as a rule, active = well fitted curve in the direction sought with a large enough effect; inconclusive = small, poorly fitted or top-dose-only effect, or effect the other way; inactive = no such curve, though single readings can be large or run the other way. Some of the results follow.
Outcome (select one): active, inactive

Past entries and their recorded results:
In [3]: df
Out[3]:
                                   compound                               target  qualitativelabel
0  CS(=O)(=O)N1CCC2(CC1)CN(C(=O)Nc1cccc(C#N)c1)C2  Cytochrome P450 2C19 (Homo sapiens)          inactive
1  COc1ccc(S(N)(=O)=O)cc1C(=O)NCCCN1CCN(c2ccc(C)cc2)CC1  Cytochrome P450 2C19 (Homo sapiens)          inactive
2   CCCCCOC(=O)CSc1nnc(-c2ccccc2)c(=O)[nH]1  Cytochrome P450 2C19 (Homo sapiens)            active
3  COc1ccc(S(=O)(=O)N2CCCN(CC(=O)Nc3ccc(OC)c(Cl)c3)CC2)cc1  Cytochrome P450 2C19 (Homo sapiens)            active
4  COc1ccc(NC(=O)N2CC[C@@]3(CCCN(S(C)(=O)=O)C3)C2)cc1  Cytochrome P450 2C19 (Homo sapiens)          inactive

IN: Which outcome was assigned to COc1ccccc1CNc1ncnc2ccc(-c3ccccc3OC)cc12 in this test?
OUT: active

IN: Would you mind telling me which call this test gave COc1ccc(NC(=O)c2cc(S(=O)(=O)N3CCS(=O)(=O)CC3)ccc2Cl)cc1 ?
OUT: inactive

IN: What classification did COc1cccc(-c2ccc3ncnc(NCc4ccc(OC)cc4OC)c3c2)c1 end up with in this test?
OUT: active

IN: Outcome logged for Cc1cc(C(=O)CSC(=S)SC(C)(C)C)ccc1Cl in this assay:
OUT: active

IN: How was COCC(C)n1c(C)cc(C(=O)CSc2nnc(Nc3ccccc3F)s2)c1C (stereo unspecified) classified in this test?
OUT: active

IN: I would be grateful if you could indicate the recorded call for N#Cc1cccc(-c2ccc3ncnc(NCc4ccccc4)c3c2)c1 .
OUT: inactive

IN: Kindly provide the recorded test outcome for the following compound: COc1cc(C2C(C#N)=C(N)N(c3sc4c(c3C#N)CCCC4)C3=C2C(=O)CC(C)(C)C3)cc(OC)c1OC (stereo unspecified)
OUT: active

IN: What classification did CC(C)NC[C@@H](O)COc1ccc(CCOCC2CC2)cc1 end up with in this test?
OUT: inactive

IN: GET /call?item= COc1ccc(C)cc1NC(=O)CCC(=O)Nc1nnc(C(F)(F)F)s1 returns the recorded outcome of this test.
OUT: inactive

IN: What is the recorded call for this compound in the test? COc1ccc(CNc2ncnc3ccc(-c4cccc(C#N)c4)cc23)c(OC)c1
OUT: inactive

IN: Could you check what this test reported for NC(N)=[N+]1CCc2ccccc2C1 ?
OUT: inactive

IN: I would be grateful if you could indicate the recorded call for COc1ccc(S(=O)(=O)N2CCCN(CCC(=O)Nc3cccc(C(F)(F)F)c3)CC2)cc1 .
OUT: active
